# targetOrSystem: Human recombinant melanocortin MCI receptors (Homo sapiens, UniProt Q01726)
# Construct: purchased Eurofins Discovery Item 251100; host or cells: CHO-K1
# Sequence (Q01726 whole entry): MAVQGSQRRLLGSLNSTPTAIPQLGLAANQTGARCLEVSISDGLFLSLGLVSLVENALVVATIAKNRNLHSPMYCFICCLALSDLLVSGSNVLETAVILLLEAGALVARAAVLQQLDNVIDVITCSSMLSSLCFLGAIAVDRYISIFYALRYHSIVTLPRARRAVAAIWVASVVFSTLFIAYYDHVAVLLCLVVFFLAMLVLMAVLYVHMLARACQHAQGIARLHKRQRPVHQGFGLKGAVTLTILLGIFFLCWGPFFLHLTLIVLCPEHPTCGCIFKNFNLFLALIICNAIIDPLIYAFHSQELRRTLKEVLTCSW
# protocolDescription: MC1 Human Melanocortin GPCR Binding (Agonist Radioligand) competition assay (Eurofins Item 251100)
# testContext: Example 7, Table 7; binned; screened at five concentrations; read-out: IC50
Square brackets hold non-standard residues; d marks the D form. Peptide text beside a SMILES is read from it.
measure: IC50

compound	targetOrSystem	IC50
CC[C@H](C)[C@H](N)C(=O)N[C@@H](Cc1ccccc1)C(=O)N[C@@H](CCCNC(=N)N)C(=O)N[C@H](Cc1c[nH]c2ccccc12)C(=O)N[C@@H](Cc1ccccc1)C(=O)N[C@@H](CCCCN)C(=O)N1CCC[C@H]1C(=O)N[C@H](C(N)=O)C(C)C [SEQ ID NO: 32, Ile-Phe-Arg-dTrp-Phe-Lys-Pro-Val-NH2] (H-IFR[dW]FKPV-NH2)	Human recombinant melanocortin MCI receptors (Homo sapiens, UniProt Q01726)	< 200 nM

// CC(C)C[C@@H](NC(=O)[C@H](C)N)C(=O)N[C@H](Cc1ccccc1)C(=O)N[C@@H](CCCNC(=N)N)C(=O)N[C@H](Cc1c[nH]c2ccccc12)C(=O)N[C@@H](Cc1ccccc1)C(=O)N[C@@H](CCCCN)C(=O)N1CCC[C@H]1C(=O)N[C@H](C(N)=O)C(C)C [SEQ ID NO: 40] (H-A[dL][dF]R[dW]FKPV-NH2) : IC50 value = > 500 nM
